- tested_on: Haspin kinase (Homo sapiens)
- Construct: This full-length Haspin gene was cloned into the pMALc2E vector; made in house; host or cells: E. coli Rosetta 2(DE3)pLysS
- Sequence (Q8TF76 1-798): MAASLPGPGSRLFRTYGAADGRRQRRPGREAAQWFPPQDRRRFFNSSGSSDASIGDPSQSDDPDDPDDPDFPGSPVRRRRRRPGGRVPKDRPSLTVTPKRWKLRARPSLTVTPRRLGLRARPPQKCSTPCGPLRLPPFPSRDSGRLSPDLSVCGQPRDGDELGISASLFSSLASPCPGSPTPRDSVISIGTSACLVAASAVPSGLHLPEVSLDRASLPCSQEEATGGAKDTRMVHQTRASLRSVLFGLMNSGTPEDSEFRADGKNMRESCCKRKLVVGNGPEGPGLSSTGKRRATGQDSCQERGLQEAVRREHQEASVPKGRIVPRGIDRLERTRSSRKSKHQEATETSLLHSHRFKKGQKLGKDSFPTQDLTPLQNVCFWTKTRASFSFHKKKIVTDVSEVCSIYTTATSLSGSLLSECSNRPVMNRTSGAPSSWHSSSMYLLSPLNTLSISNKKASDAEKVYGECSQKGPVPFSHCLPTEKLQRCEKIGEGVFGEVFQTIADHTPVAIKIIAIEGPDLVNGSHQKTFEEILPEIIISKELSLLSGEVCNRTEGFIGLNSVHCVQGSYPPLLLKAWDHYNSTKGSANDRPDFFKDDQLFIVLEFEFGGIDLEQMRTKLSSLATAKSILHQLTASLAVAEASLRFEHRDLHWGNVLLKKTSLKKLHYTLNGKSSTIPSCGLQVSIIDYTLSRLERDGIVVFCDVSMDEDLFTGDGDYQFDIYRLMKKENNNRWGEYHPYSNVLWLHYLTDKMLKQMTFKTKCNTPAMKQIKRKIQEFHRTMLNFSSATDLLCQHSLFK
- experiment_summary: TR-FRET Haspin assay
- Type: biochemical
- run_parameters: read-out: IC50
pIC50: −log10 of the molar value.
# maps each entry to its pIC50

[
  {
    "molecule": "COc1ccc2c(c1)[nH]c1c(-c3ccccc3)nccc12 [LDN-209952]",
    "pIC50": "< 5.30"
  },
  {
    "molecule": "Cc1nccc2c3ccc(OC(C)(C)C)cc3n(CCCCN)c12 [LDN-211903]",
    "pIC50": "> 5.30"
  },
  {
    "molecule": "COc1ccc2c(c1)[nH]c1ncccc12 [LDN-209919]",
    "pIC50": "< 4.00"
  },
  {
    "molecule": "Cc1nccc2c1[nH]c1cc(OCCCNC(=O)OC(C)(C)C)ccc12 [LDN-209921]",
    "pIC50": "< 5.00"
  },
  {
    "molecule": "c1ccc2c(c1)[nH]c1cnccc12 [LDN-14063]",
    "pIC50": "< 5.00"
  },
  {
    "molecule": "Cc1nccc2c1[nH]c1cc(OCCCCNC(=O)OC(C)(C)C)ccc12 [LDN-209920]",
    "pIC50": "< 5.00"
  },
  {
    "molecule": "COc1ccc2c3ccnc(C)c3n(CCCC(N)c3ccccc3)c2c1 (stereo not drawn) [LDN-211902]",
    "pIC50": "> 6.70"
  },
  {
    "molecule": "COc1ccc2c(c1)[nH]c1c(/C=C/c3ccccc3)nccc12 [LDN-57292]",
    "pIC50": "> 5.70"
  },
  {
    "molecule": "COc1ccc2c(c1)[nH]c1ccccc12 [LDN-209934]",
    "pIC50": "< 6.00"
  }
]
